- target_system: D-3-phosphoglycerate dehydrogenase (Homo sapiens)
- assay_comment: Inhibition of human PHGDH using 3-PG as substrate by fluorescence based analysis
pIC50: −log10 of the molar value.
readout_kind: pIC50

* O=C(c1ccc(Cl)cc1)N1CCOCC1 [(4-CHLOROPHENYL)(MORPHOLINO)METHANONE] | 4.98

----------
- target_system: D-3-phosphoglycerate dehydrogenase (Homo sapiens, UniProt O43175)
- assay_comment: Binding affinity to PHGDH (unknown origin) by isothermal titration calorimetry
pKd: −log10 of the molar value.
readout_kind: pKd

• NC(=O)c1cc2ccccc2s1 = 3.33

----------
We begin with a simple list: items and their reported Kd.
- target_system: D-3-phosphoglycerate dehydrogenase (Homo sapiens)
- Sequence (O43175 whole entry): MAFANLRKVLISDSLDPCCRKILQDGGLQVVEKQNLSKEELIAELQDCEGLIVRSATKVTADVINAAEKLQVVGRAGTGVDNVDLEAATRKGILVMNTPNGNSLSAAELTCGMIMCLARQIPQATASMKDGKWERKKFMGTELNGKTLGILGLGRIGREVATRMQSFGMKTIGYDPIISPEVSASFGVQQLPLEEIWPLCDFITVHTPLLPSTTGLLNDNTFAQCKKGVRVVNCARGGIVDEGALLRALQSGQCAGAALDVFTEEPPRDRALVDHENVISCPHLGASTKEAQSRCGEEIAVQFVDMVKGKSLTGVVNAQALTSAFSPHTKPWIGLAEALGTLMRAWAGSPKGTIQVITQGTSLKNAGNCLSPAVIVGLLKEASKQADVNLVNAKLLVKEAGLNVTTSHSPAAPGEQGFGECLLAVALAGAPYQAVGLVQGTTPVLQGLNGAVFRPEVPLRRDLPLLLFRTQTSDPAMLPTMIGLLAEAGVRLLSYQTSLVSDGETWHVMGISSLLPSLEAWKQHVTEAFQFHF
- assay_comment: Binding affinity to human PHGDH (3 to 314 residues) expressed in Escherichia coli Rosetta (DE3) by isothermal titration calorimetry
readout_kind: Kd (mM)

- COc1ccc(NC(C)=O)cc1Cl: 1.3
- Cc1cncc(Cc2cccc(CO)c2)n1: 16.6
